Would you kindly list MIC for each of these compounds?
- Test system: Escherichia coli
- assay: Antibacterial activity against Escherichia coli C1541 expressing IMP-1 assessed as meropenem MIC at 10 ug/ml incubated for 16 to 18 hrs in presence of meropenem by two-fold serial dilution method
- Format: functional
- particulars: dose 10 µg/ml, time 16-18 hrs
// units = µg/mL; emit number, no label

For `O=C(O)c1nccn1Cc1ccncc1` on Escherichia coli, measured MIC was 8

Value (MIC, Escherichia coli) for record `O=C(O)c1nccn1CCc1ccc(-c2ccccc2)cc1` = 8

Tested on Escherichia coli: `O=C(O)c1nccn1CCc1cccc2ccccc12` . Observed MIC: 8

Item: O=C(O)c1nccn1C(C(=O)O)c1ccccc1 (stereo not drawn) | System: Escherichia coli | MIC: 8

Note to self: MIC of `O=C(O)c1nccn1CCc1ccc([N+](=O)[O-])cc1` with Escherichia coli was 8

Measured MIC for this entry `O=C(O)c1nccn1CCc1ccc2ccccc2c1` on Escherichia coli: 8

Reported Escherichia coli MIC for item `O=C(O)c1nccn1Cc1ccccc1` was 8

GET /values?item= `O=C(O)c1nccn1CCc1ccc(-c2cccs2)cc1` &system= Escherichia coli returns MIC: 8

---

- target-system: Metallo-beta-lactamase type 2 (Bacteria, UniProt C7C422)
- Sequence (C7C422 whole entry, the tested form may be a part): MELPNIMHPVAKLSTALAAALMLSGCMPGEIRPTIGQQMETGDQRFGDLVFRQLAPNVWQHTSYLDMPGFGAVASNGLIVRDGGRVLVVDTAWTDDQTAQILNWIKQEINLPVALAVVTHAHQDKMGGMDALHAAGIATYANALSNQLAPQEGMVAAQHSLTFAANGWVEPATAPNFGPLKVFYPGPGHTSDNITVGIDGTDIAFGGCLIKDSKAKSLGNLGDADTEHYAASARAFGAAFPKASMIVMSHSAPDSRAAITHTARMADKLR
- assay: Inhibition of NDM-1 (1 to 270 residues) (unknown origin) expressed in Escherichia coli Transetta (DE3) using FC5 as fluorescence substrate preincubated for 10 mins followed by substrate addition by microplate reader analysis
Kindly state IC50 for each of the entries shown.

The reported value for `O=C(O)c1nccn1CCc1ccc(-c2ccncc2)cc1` in terms of IC50 is 54.6 µM

IC50 for `Cc1ncsc1CCn1ccnc1C(=O)O` is > 100 µM

compound `O=C(O)c1nccn1CCc1ccc([N+](=O)[O-])cc1` , IC50 observed: > 100 µM

Reported IC50 ( `O=C(O)c1nccn1Cc1ccncc1` ) = > 300 µM

Entry CC(Cn1ccnc1C(=O)O)c1ccccc1 (centres undefined) ; IC50 = 203 µM

IC50 for `O=C(O)c1nccn1CCNS(=O)(=O)c1ccccc1` is > 100 µM

get_value(item= `O=C(O)c1nccn1CCc1cccc(F)c1` , readout=IC50) returns > 100 µM

In plain terms, `COc1ccc(CCn2ccnc2C(=O)O)cc1OC` has a documented IC50 of > 100 µM

// IC50 value for `O=C(O)c1nccn1CCc1ccccc1` : 301 µM

response.value for `O=C(O)c1nccn1CCc1cccc2ccccc12` (field: IC50) = 74.8 µM

Query `O=C(O)c1ncnn1Cc1ccccc1` yields IC50 of > 100 µM

Recorded result, `O=C(O)c1nccn1CCc1cccc(Cl)c1` , IC50: > 100 µM

Value of measured IC50 for the entry O=C(O)c1nccn1C(C(=O)O)c1ccccc1 (centres undefined) : > 300 µM

Input `O=C(O)c1nccn1Cc1ccccc1` . Output IC50: 63.5 µM

---

- assay: Inhibition of N-terminal His-6 tagged VIM-2 (27 to 266 residues) (unknown origin) expressed in Escherichia coli Transetta (DE3) using FC5 as fluorescence substrate preincubated for 10 mins followed by substrate addition by microplate reader analysis
- Parameters: species or system Bacteria
I'd appreciate it if you could supply log10(IC50) values for the items below.
In plain terms, each number is the log10 of measured IC50 in nM.

In plain terms, `Cc1ccc(CCn2ccnc2C(=O)O)cc1` has a documented log10(IC50) of 2.68

Lab note: O=C(O)c1nccn1C(C(=O)O)c1ccccc1 (stereo not given) gave log10(IC50) of 3.87

For `O=C(O)c1ncsc1CCc1ccccc1F` the molecule record lists log10(IC50) as 1.54

Data point: CC(Cn1ccnc1C(=O)O)c1ccccc1 (stereo not given) ; log10(IC50) = 2.28

Kindly note the recorded log10(IC50) for `O=C(O)c1nccn1Cc1ccccc1` , which is 2.68

Just so you know, measured log10(IC50) for `O=C(O)c1nccn1CCc1cccc(F)c1` came out at 2.04

For reference, reported log10(IC50) for `O=C(O)c1nccn1CCc1ccc(Cl)cc1` stands at 2.00

Recorded log10(IC50) (molecule CCC(c1ccccc1)n1ccnc1C(=O)O (stereo not given) ): 3.44

Reported log10(IC50) for `COc1cccc(CCn2ccnc2C(=O)O)c1` was 2.58

Looking up `O=C(O)c1ncsc1CCc1cccc(C(F)(F)F)c1` , I see its log10(IC50) listed as 2.75

Record `O=C(O)c1nccn1Cc1ccncc1` , field log10(IC50): 2.75

So for `O=C(O)c1nccn1CCc1ccccc1` , the logged log10(IC50) turned out to be 2.04

Reported log10(IC50) ( `O=C(O)c1nccn1CCc1ccc(Br)cc1` ) = 1.78

Note to self: log10(IC50) recorded for `O=C(O)c1nccn1CCNS(=O)(=O)c1ccccc1` was 3.77

Just so you know, measured log10(IC50) for `O=C(O)c1nccn1CCc1ccc(-c2ccncc2)cc1` came out at 2.04

molecule `O=C(O)c1ncsc1CCc1cccc(Br)c1` , log10(IC50) observed: 1.38

So for `O=C(O)c1nccn1CCc1ccc([N+](=O)[O-])cc1` , the logged log10(IC50) turned out to be 1.60

Reported log10(IC50) of `O=C(O)c1ncsc1CCc1ccc(Br)cc1` : 2.00

Lab note: measured log10(IC50) of `O=C(O)c1ncsc1CCc1ccc(F)cc1` was 1.67

Memo: `O=C(O)c1nccn1CCc1ccc(F)cc1` , reported log10(IC50): 2.15

# log10(IC50) (molecule: `O=C(O)c1ncoc1Cc1ccccc1` ) is 4.62

Entry `O=C(O)c1nccn1CCc1cccc(Cl)c1` — recorded log10(IC50) = 1.95

The reported log10(IC50) of the molecule `O=C(O)c1nccn1CCc1cccc2ccccc12` was 1.85

# log10(IC50) (molecule: `O=C(O)c1nccn1CCc1ccc2c(c1)CCO2` ) is 2.68

log10(IC50) reported for this molecule `O=C(O)c1nccn1CCc1ccc2ccccc2c1` : 1.36

Lab note: measured log10(IC50) of `O=C(O)c1nccn1CCc1ccc(-c2cccs2)cc1` was 1.26

The molecule `Cc1ncsc1CCn1ccnc1C(=O)O` showed log10(IC50) equal to 2.30

Looking up `O=C(O)c1nccn1CCS(=O)(=O)c1ccccc1` , I see its log10(IC50) listed as 3.46

// log10(IC50) lookup, molecule = `O=C(O)c1ncsc1Cc1ccccc1` , result: 3.31

So for `O=C(O)c1ncsc1CCc1ccccc1` , the logged log10(IC50) turned out to be 2.34

The reported value for `COc1ccc(CCn2ccnc2C(=O)O)cc1OC` in terms of log10(IC50) is 2.49

The molecule identified as `O=C(O)c1ncsc1CCc1ccc(C(F)(F)F)cc1` registered its log10(IC50) at 2.32

Reported log10(IC50) ( `O=C(O)c1nccn1CCc1ccc(-c2ccc3ccccc3c2)cc1` ) = 3.70

log10(IC50) in this record for `COc1ccc(CCn2ccnc2C(=O)O)cc1` : 2.54

Note to self: log10(IC50) recorded for `O=C(O)c1nccn1CCc1ccc(-c2cccc3ccccc23)cc1` was 3.16

Kindly note the recorded log10(IC50) for `O=C(O)c1nccn1CCOc1ccccc1` , which is 3.74

Data point: `O=C(Cn1ccnc1C(=O)O)c1ccccc1` ; log10(IC50) = 2.80

The reported value for `O=C(O)c1nccn1CCc1ccccn1` in terms of log10(IC50) is 2.30

Value of log10(IC50) reported for the molecule `O=C(O)c1nccn1CCc1ccc(-c2ccccc2)cc1` is 1.78

What the record says about `COc1cccc(CCc2scnc2C(=O)O)c1` : log10(IC50) is 1.45

Input `Nc1ccc(CCn2ccnc2C(=O)O)cc1` . Output log10(IC50): 2.52

Field log10(IC50) (entry `O=C(O)c1nccn1CCc1cccs1` ) reads 2.08

Short answer for `O=C(O)c1ncsc1CCc1ccc(C(c2ccccc2)(c2ccccc2)c2ccccc2)cc1` : log10(IC50) was 2.36

Consider `O=C(O)c1nccn1CCCc1ccccc1` . Its measured log10(IC50) is 2.80

Form field log10(IC50), entry CC(c1ccccc1)n1ccnc1C(=O)O (stereo not given) : 2.88

---

- assay: Inhibition of Metallo-beta-lactamase VIM-5 (unknown origin) using FC5 as fluorescence substrate preincubated for 10 mins followed by substrate addition by microplate reader analysis
Task for the reader: assign each of the following compounds its reported IC50.
Number only, in nM; omit the unit.

# compound `O=C(O)c1nccn1CCc1ccc([N+](=O)[O-])cc1` ; its IC50 = 150

In plain terms, `O=C(O)c1nccn1CCS(=O)(=O)c1ccccc1` has a documented IC50 of 4420

Entry `O=C(O)c1ncsc1CCc1ccc(F)cc1` , IC50 reported as 410

Data point: `O=C(O)c1nccn1CCc1ccc(-c2ccc3ccccc3c2)cc1` ; IC50 = 220
